Values from the supplement of paper PMC9170038

Listed here: items and their measured apparent KD of MS2 coat protein.
# Tested on: MS2 coat protein
# experiment_notes: apparent KD of MS2 coat protein; designed switch direction (-1 OFF switch, 1 ON switch): 1; higher = weaker reporter binding
# test_context: input ligand: FMN 200 uM
Only the number, expressed in nM, is required.

These solved cases illustrate the format of a correct answer.
{"sequence_string": "UGAAUAGUUACAGGAUAUGAGCCGAAAAUUGGGUCAGAAGGGUGGGUGUUUUGCGCUAUGUGCUACAUGAGGAUCACCCAUGUU [SameState NG1 #34] (Eterna round: R96, puzzle: Same State NG 1)", "target_desc": "MS2 coat protein", "apparent KD of MS2 coat protein [nM]": 888}
{"sequence_string": "AAACGGCCCAACGAAGGGCCACAUGAGGAUCACCCAUGUACAUAGGAUAUCACGCCAACAAAGCGUGAGAAGGGUGAUUAAAAC [Lezaer] (Eterna round: R96, puzzle: Same State NG 3)", "target_desc": "MS2 coat protein", "apparent KD of MS2 coat protein [nM]": 270}
{"sequence_string": "UGAAUGGUGAUAGGAUAUACAUGAGGAAUCCUCGUAGAAGGAUCACGACAUGAGGAUCACCCAUGUAGCCGUCCGUAGACGGCG [salish99_SSNG1_r04_001] (Eterna round: R96, puzzle: Same State NG 1)", "target_desc": "MS2 coat protein", "apparent KD of MS2 coat protein [nM]": 302}

# input Specify the recorded apparent KD of MS2 coat protein for ACAUGAGGAGCAGGAUAUCGCAUGAGGAUCACCCGAGAAGGGCUCACACAUGAGGAUCACCCAUGUAUCACCCAUGUAUGUUGA [twils 1] (Eterna round: R96, puzzle: Same State NG 1) , system: MS2 coat protein.
# output 484

# input Write down measured apparent KD of MS2 coat protein (MS2 coat protein) for this sequence. GGAGCCGGCACUGAGGAUAUUCAUAUUAAAACAUGAGGAUCACCCAUGUAGGCCAGAAGGCCUUGGGAGAAGGCAGGUCGACUCG [Diqureveri] (Eterna round: R96, puzzle: Same State 2)
# output 24.5
